Reference for the values: PubChem BioAssay AID1259418

Biological target: T. gondii ME49Luc in IFN-y HeLa, luciferase, 72 h
Assay: T. gondii growth inhibition with IFN-gamma, dose response, cell-based, ME49Luc, HeLa, luciferase, 72 h (AID 1259418)
Records with an inconclusive call do not appear. Calls of active or inactive are those of the source.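 Rule for the calls: active = fitted half-maximal concentration of signal decrease at or below twice the sample's top tested concentration; inconclusive = flat curve between -70 and -30 percent, or poor fit; inactive = flat within 30 percent, signal rise, or potency above limit.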
Answer with one of the outcomes active, inactive

Ask: What classification did O=C1CCc2cc(NC(=O)c3cccc(C(F)(F)F)c3)ccc2N1 end up with in this test?
Result: active

Ask: What classification did CCc1ccc(C(=O)Nc2ccc3c(c2)CCC(=O)N3C)cc1 end up with in this test?
Result: active

Ask: What classification did O=C1CCc2cc(S(=O)(=O)N3CCc4ccccc43)cc3c2N1CCC3 end up with in this test?
Result: inactive

Ask: What classification did COc1ccc(CNC(=O)COc2nc(C)nc3ccccc23)cc1 end up with in this test?
Result: inactive

Ask: What classification did CN1c2ccc(-c3ccccc3)cc2[C@H]2[C@H](CCN2C(=O)CC2CC2)[C@@H]1CO end up with in this test?
Result: active

New cases:
Ask: What classification did Cc1ccc(CCNc2nc(-c3ccc(Cl)cc3)nc3ccccc23)cc1 end up with in this test?
Result: active
